Origin of measurements: paper PMC5286506

- PROTOCOL DESCRIPTION: MTT tissue viability in the EpiVaginal tissue model
- Assay type: cell-based
- RUN CONDITIONS: human, EpiVaginal tissue model (cervicovaginal cultures); 4 hours; 20 μM tenofovir and/or 6.7 μM M48U1 in 0.25% HEC
REPORTED METRIC: viability at 4 h, 20 μM
Write the numeric value and follow it with the unit.

Quick one: viability at 4 h, 20 μM for C[C@H](Cn1cnc2c(N)ncnc21)OCP(=O)(O)O ?
96%

---

- PROTOCOL DESCRIPTION: MTT tissue viability in the EpiVaginal tissue model
- Type: cell-based
- RUN CONDITIONS: human, EpiVaginal tissue model (cervicovaginal cultures); 96 hours; 20 μM tenofovir and/or 6.7 μM M48U1 in 0.25% HEC
REPORTED METRIC: viability at 96 h, 20 μM (%)
Only the number, expressed in %, is required.

Quick one: viability at 96 h, 20 μM for C[C@H](Cn1cnc2c(N)ncnc21)OCP(=O)(O)O ?
104

---

- PROTOCOL DESCRIPTION: MTT tissue viability in the EpiVaginal tissue model
- Assay type: cell-based
- RUN CONDITIONS: human, EpiVaginal tissue model (cervicovaginal cultures); 1 hour; 20 μM tenofovir and/or 6.7 μM M48U1 in 0.25% HEC
REPORTED METRIC: viability at 1 h, 20 μM

Quick one: viability at 1 h, 20 μM for C[C@H](Cn1cnc2c(N)ncnc21)OCP(=O)(O)O ?
95%

---

- PROTOCOL DESCRIPTION: in vitro
- RUN CONDITIONS: human, activated PBMCs
REPORTED METRIC: CC50 at 7 days

Quick one: CC50 at 7 days for C[C@H](Cn1cnc2c(N)ncnc21)OCP(=O)(O)O ?
> 20 µM
